The origin of these recorded values is PubChem BioAssay (NCI).

test system: HCT-15 colon; assay: NCI-60 one-dose screen, 48 h (100 = growth as untreated, 0 = no growth, -100 = all killed); settings: 10 µM unless noted
The panel holds about 83,000 compounds, 20% with a hit somewhere; the sample as a whole holds those more often.
property measured: growth (%)
# value in %; strip the unit string

Use the examples below as a reference point.
>>> df
                                   molecule  study_target  property_measured  scale_unit  recorded_measurement
0  CC(=O)NC(CCC(=O)c1ccccc1)C(=O)O (stereo not drawn)  HCT-15 colon             growth           %                   104
1        C=CC(C)C(C)(C)O (stereo not drawn)  HCT-15 colon             growth           %                   104
2                 Cc1ccc(OC(=O)c2ccccc2)cc1  HCT-15 colon             growth           %                   118

So what's the measured growth for this one? "CC1=CC(=Nc2ccc(N(C)C)cc2)C=C(C)C1=O" 85.7

Same read-out for Nc1ccn(C2OC(CO)C(O)C2F)c(=O)n1 (stereo not drawn) ? 95.8

Same read-out for "O=C(O)Cc1ccc(Cl)cc1" ? 112

Same read-out for O=C(O)C1CSC(c2ccccc2)N1 (stereo not drawn) ? 90.5

Same read-out for "Cn1c(=O)[nH]c2ccccc2c1=O" ? 101

* * *

Entries and their measured growth follow.
system: SF-268 CNS; assay: NCI-60 one-dose screen, 48 h (100 = growth as untreated, 0 = no growth, -100 = all killed); conditions: 10 µM unless noted
This is part of a sample that, as a whole, favours compounds with a hit. Of some 83,000 tested, about 20% had one in any assay. Calls of active or inactive are those of the source. The calls were made as follows: active = growth percent below 10; inactive = the rest.

Use the examples below as a reference point.
                                   compound  property_measured  recorded_measurement
0  CCCC1OC(c2ccco2)OCC1CC (stereo not drawn)             growth       101% (inactive)
1                       CCOc1ccc(C(=O)O)cc1             growth       110% (inactive)
2              O=C(OCc1ccccc1)n1nnc2ccccc21             growth       104% (inactive)
3                          CC(CO)(CO)C(=O)O             growth       104% (inactive)
4          CC(C)C(=O)OCCOc1ccc(C(C)(C)C)cc1             growth      96.1% (inactive)
5                          CCOC(=O)Nc1nccs1             growth       117% (inactive)
6  CN1CCCN(C(c2ccccc2)c2ccc(Br)cc2)CC1 (stereo not drawn)             growth      61.6% (inactive)
7            Cc1cc(NC(=O)c2ccccc2)c(Cl)cc1N             growth       114% (inactive)

So what's the measured growth for this one? "Cc1ccc(C)c(CN(C)C)c1O" 104% (inactive)

* * *

test system: RPMI-8226 leukemia; experiment: NCI-60 one-dose screen, 48 h; conditions: 10 µM unless noted
This is part of a sample that, as a whole, favours compounds with a hit. Of some 83,000 tested, about 20% had one in any assay. The source made the active and inactive calls. The calls were made as follows: active = growth percent below 10; inactive = the rest.
Valid outcomes are listed here; reply with one: Y (active), N (inactive)

// below: answered compounds
In [3]: df
Out[3]:
                                   compound  label_class
0  CC(=O)N=c1ccc2nc3c(cc(N)c4ccccc43)oc-2c1            Y
1                    Cc1ccc(/C=N/NC(N)=S)s1            N
2           CCCCNc1ccc(-c2ccc(NCCCC)cc2)cc1            N
3  C/C=C/C1OCC(CC)C(CCC)O1 (centres undefined)            N
4                   CCCCNC(=O)c1ccc(OCC)cc1            N
5                 CC(C)c1ccc(C(=O)OCCCl)cc1            N

Could you check what this test reported for CC(=O)OC/C(C)=C\CC(C)COC(C)=O (centres undefined) ? N

Same read-out for "CCOC(=O)c1ccc(C(C)(C)C)cc1" ? N

Same read-out for CCC(C)C1CCC(O)CC1 (centres undefined) ? N

Same read-out for "CN(C(=S)S(=O)(=O)C12CC3CC(CC(C3)C1)C2)c1ccccc1" ? N

Same read-out for "Cc1ccc(NC(=S)N2CCOCC2)cc1C" ? N

Same read-out for "COc1cc(OC)c2cc(C(=O)c3ccc(C#N)cc3)c(=O)oc2c1" ? N

Same read-out for "CCOC(=O)C(C#N)=C1CCN(C)CC1" ? N

Same read-out for "CCc1ccccc1C(=O)N(CC)CC" ? N
